Assay: protein stability index of a GFP-peptide fusion (yeast GPS) (PSI 1-4); higher = more stable; sorted into four equal gates, so the index is relative within each strain
Details: pdr5∆
Think of 3 as a floor: if protein stability index stands on it or above, it is yes (1); beneath it, no (0).

Does protein stability index meet or surpass 3 for PKSTKGKILTIKQQQQQ [YML103C/NUP188] ?
no (0)

Does protein stability index meet or surpass 3 for QEEFVQFLQLDNDGFSF [ECM29] ?
yes (1)

Does protein stability index meet or surpass 3 for KFNELVKLMKNITDYET [BRR2] ?
no (0)

Does protein stability index meet or surpass 3 for DDTWYNLTEFVQMDKIR [AAR2] ?
no (0)

Does protein stability index meet or surpass 3 for LDYVRTPAAATSPIDIR [SNF2] ?
no (0)
